Listed compounds paired with reported Ki
target: Mu-type opioid receptor (Homo sapiens, UniProt P35372); assay: Binding affinity against human Opioid receptor mu 1 (hMOR) was determined using [3H]diprenorphine in vitro transfected to COS-1 cells
Sequence (P35372 whole entry): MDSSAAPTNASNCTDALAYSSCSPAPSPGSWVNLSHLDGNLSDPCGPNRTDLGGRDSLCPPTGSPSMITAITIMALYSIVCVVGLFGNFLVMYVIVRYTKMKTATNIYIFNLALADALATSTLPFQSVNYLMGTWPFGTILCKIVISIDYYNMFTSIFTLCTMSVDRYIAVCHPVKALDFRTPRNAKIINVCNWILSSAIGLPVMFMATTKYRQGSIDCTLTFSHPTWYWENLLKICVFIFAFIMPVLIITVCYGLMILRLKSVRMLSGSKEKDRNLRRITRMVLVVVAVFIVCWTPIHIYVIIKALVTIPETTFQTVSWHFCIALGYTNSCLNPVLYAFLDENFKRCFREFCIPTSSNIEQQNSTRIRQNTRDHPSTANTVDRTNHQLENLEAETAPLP
Number only, in µM; omit the unit.

Sample answers from the record:
>>> value_observed("CC(=O)N[C@@H](CCCN=C(N)N)C(=O)N[C@H](CC1CCCCC1)C(=O)N[C@H]1CC[C@H]2CCC[C@@H](C(=O)N[C@H](CCCN=C(N)N)C(=O)N[C@H](Cc3ccc(Cl)cc3)C(N)=O)N2C1=O")
0.09
>>> value_observed("CC(=O)N[C@@H](CCCNC(N)=O)C(=O)N[C@H](CC1CCCCC1)C(=O)N[C@H]1CC[C@H]2CCC[C@@H](C(=O)N[C@H](CCCN=C(N)N)C(=O)N[C@H](Cc3ccc(Cl)cc3)C(N)=O)N2C1=O")
2.56

Now look at this entry.
[in] I have this compound here, CC(=O)N[C@@H](CCCN=C(N)N)C(=O)N[C@H](CC1CCCCC1)C(=O)N[C@H]1CC[C@@H]2SC[C@@H](C(=O)N[C@H](CCCN=C(N)N)C(=O)NC(Cc3ccc(Cl)cc3)C(N)=O)N2C1=O (stereo not given in full) , and I need its recorded Ki.
[out] 0.053
